- Tested on: UACC-62
- METHOD: NCI tumour cell line growth inhibition, 48 h
Activity calls are given as the source filed them. No stated cut-off is given here; in the data, active = GI50 up to about 1.1 µM and inactive = higher.
Possible outcomes: 1 (yes) (active), 0 (no) (inactive)

In [3]: df
Out[3]:
                                test_smiles      cat
0  CCCCCCCCOC(=O)c1cc([N+](=O)[O-])c(Sc2[nH]cnc3ncnc2-3)c([N+](=O)[O-])c1   0 (no)
1  O=C1c2c(c3c4ccccc4n4c3c3c2c2ccccc2n3C/C=C\C4)C(=O)N1Cc1ccccc1   0 (no)
2        C[N+](C)([O-])C12CC3CC(CC(C3)C1)C2   0 (no)
3            COc1ccc(NCc2cc(OC)cc(OC)c2)cc1   0 (no)
4  CC(=O)/C(=C/n1ccc(=O)[nH]c1=S)C(=O)Nc1ccccc1C   0 (no)
5      Cc1cccc2cc3cccc(C(=O)NCCN(C)C)c3nc12  1 (yes)

###

- System: EKVX
- METHOD: NCI tumour cell line growth inhibition, 48 h
Activity calls are given as the source filed them. No stated cut-off is given here; in the data, active = GI50 up to about 1.1 µM and inactive = higher.
Possible outcomes: active, inactive

                                    molecule       cat
 0       O=C1C(=O)N(C2CCCCC2)C(=S)N1C1CCCCC1  inactive
 1  COC1C=CC(C(=O)[N+]2=Cc3[nH]c4ccccc4c3CC2)O1 (configuration not stated)  inactive
 2  C=C1CC[C@@H]2C(C)(C)C(O)CCC2(C)C1COc1ccc2ccc(=O)oc2c1 (some centres not stated)  inactive
 3  COc1ccc2cc(CNCCOCCOCCNCc3ccc4cc(OC)ccc4c3)ccc2c1  inactive
 4       O=C(Oc1cccnc1)c1cc2cc(CCl)ccc2oc1=O  inactive
 5      Nc1[nH]c(=O)[nH]c(=O)c1Cc1cccc(Cl)c1  inactive
 6       COC(=O)/C=C1/OC(c2ccccc2)=C(Cl)C1=O  inactive
 7  CC(=O)OC1CC2CC(=O)CC1N2C (configuration not stated)  inactive
 8   O=c1c2cc(-c3ccccc3)cnc2sn1-c1ccc(Br)cc1  inactive
 9  C[C@H](CCC1=NCCN1)[C@H]1CC[C@H]2[C@@H]3CC[C@@H]4C[C@H](O)CC[C@]4(C)[C@H]3C[C@H](O)[C@]12C  inactive
10  COC(=O)c1ccccc1C1CN=NC12Cc1cc3c(cc1C2=O)CCC3 (configuration not stated)  inactive
11  CCCCCCCCCCCCCCCCCCN(C)CC(COP(=O)([O-])OCC[N+](C)(C)C)OC (configuration not stated)  inactive
12  O=S1(=O)C[C@H](NCc2ccccc2)[C@H](NCc2ccccc2)C1  inactive
13       S=C(Nc1ccc2c(c1)oc1ccccc12)c1cccnc1  inactive
14  O=[N+]([O-])c1ccc(S(=O)(=O)N=Ic2ccccc2)cc1  inactive
15   CCCCCCCCNC(=S)N/C=C1\C(=O)Oc2ccccc2C1=O  inactive
16  C/C(=N\NC(=S)N1CCC(C2CCN(C(=S)N/N=C(\C)c3ccccn3)CC2)CC1)c1ccccn1  inactive
17  CCOC(=O)c1ccc(Nc2nc3ccc(C(F)(F)F)cc3nc2C(=O)OCC)cc1  inactive
18   O=C(O)CN1CCN2CCCCCN(CC1)CCN(CC(=O)O)CC2  inactive
19  O=c1c2cc([N+](=O)[O-])cnc2sn1-c1ccc([N+](=O)[O-])cc1  inactive
20                                 S=C1NCCN1  inactive
21   C/C(=N\NC(=S)N1CCN(c2ccccn2)CC1)c1nccs1    active
